# experiment-description: Healthy Japanese subjects, Part 1 (single dose 200, 600, 1200 mg tablets): PK of TAK-935 and M-I
# Assay type: in vivo, human
# condition-label: human, plasma, oral, 1200 mg, TAK-935; single dose 200, 600, 1200 mg; read-out: Tmax (median), range
value-kind: Tmax

Look up and state reported Tmax for O=C(c1cccnc1-c1ccncc1)N1CCC(O)(Cc2ccccc2)CC1 [soticlestat] 30 to 45 min

====

# experiment-description: Healthy Japanese subjects, Part 2 (100, 200, 300 mg BID up-titration): PK of TAK-935 and M-I
# Format: in vivo, human
# condition-label: human, plasma, oral, 100 mg, Day 7, TAK-935 100 mg BID, plasma, mean; read-out: Cmax
value-kind: Cmax (ng/mL)
Please respond with the number in ng/mL and leave the unit unwritten.

Look up and state reported Cmax for "O=C(c1cccnc1-c1ccncc1)N1CCC(O)(Cc2ccccc2)CC1" 204

====

# experiment-description: Healthy Japanese subjects, Part 2 (100, 200, 300 mg BID up-titration): PK of TAK-935 and M-I
# Assay type: in vivo, human
# condition-label: human, plasma, oral, 100 mg, Day 7 (100 mg BID), Part 2, Median; read-out: AUC1ast
value-kind: AUC (ng·h/mL)
Please respond with the number in ng·h/mL and leave the unit unwritten.

Look up and state reported AUC for "O=C(c1cccnc1-c1ccncc1)N1CCC(O)(Cc2ccccc2)CC1" 226

====

# experiment-description: clinical
# condition-label: human, in vivo, 100 mg, AUC24 / mean steady-state area under the curve
value-kind: AUC (µg·h/mL)
Please respond with the number in µg·h/mL and leave the unit unwritten.

Look up and state reported AUC for "O=C(c1cccnc1-c1ccncc1)N1CCC(O)(Cc2ccccc2)CC1" 0.562

====

# experiment-description: clinical
# Type: in vivo
# condition-label: both sexes, human, in vivo, po, 900 mg
value-kind: AUC(0-inf) (ng·h/mL)
Please respond with the number in ng·h/mL and leave the unit unwritten.

Look up and state reported AUC(0-inf) for "O=C(c1cccnc1-c1ccncc1)N1CCC(O)(Cc2ccccc2)CC1" 7660

Cited source for all entries: patent US20250213547A1
